Test system: NCI-H522
Assay: NCI tumour cell line growth inhibition, 48 h
The source made the active and inactive calls. Rule as the data show it: active = GI50 up to about 1.1 µM and inactive = higher. Starred links: 1 amine or outer side, 2 acyl side, 3 side chain; linkers in the order of their positions; H or OH if unused. Positions of bridges follow the written chain, without caps; N, C: chain ends. Non-standard residues stand in square brackets, D forms with d. Residues, ends and D or L forms follow the SMILES beside them. Chains are numbered I, II in the order given. Actinocin(9to1) = Cc1c2oc3c(C)ccc(C(=O)[*:1])c3nc-2c(C(=O)[*:2])c(N)c1=O; NMeV = CN[CH](C(=O)O)C(C)C; Sar = CNCC(=O)O
// one of active, inactive, no free text

Worked cases, answers included:
molecule: O=[N+]([O-])c1ccc(-c2cn(-c3ccc(Cl)cc3)cn2)cc1
classLabel: inactive
//
molecule: Cc1cc(N(CCC#N)CCC#N)ccc1C(/N=N/c1ccc(Cl)cc1)=N\NC(=O)c1ccccc1
classLabel: inactive
//
molecule: Cc1cc2oc(-c3ccccc3)c(C)c(=O)c2c2c1OC(C)(C)S2
classLabel: inactive
//
molecule: Cc1cc2nc(C=C(C(F)(F)F)C(F)(F)F)sc2cc1C
classLabel: active
//
molecule: C/C(=N/NC(=S)N1CCCC1)c1cccc(/C(C)=N\NC(=S)N2CCCC2)n1
classLabel: inactive

So what was the verdict on Cn1c(=O)c2c(ncn2Cc2ccc(O)c([N+](=O)[O-])c2)n(C)c1=O in this test?
inactive

So what was the verdict on CSc1nc2c(c(=O)[nH]1)N=C(c1ccccc1)CC(c1ccccc1)N2 (centres undefined) in this test?
inactive

So what was the verdict on Cc1c2oc3c(C)ccc(C(=O)NC4C(=O)NC(Cc5ccc(O)cc5)C(=O)N5CCCC5C(=O)N(C)CC(=O)N(C)C(C(C)C)C(=O)OC4C)c3nc-2c(C(=O)NC2C(=O)NC(Cc3ccc(O)cc3)C(=O)N3CCCC3C(=O)N(C)CC(=O)N(C)C(C(C)C)C(=O)OC2C)c(N)c1=O (centres undefined) (I: TYP[Sar][NMeV] / II: TYP[Sar][NMeV]; ester I:1-I:C, II:1-II:C; linker I:N-II:N via Actinocin(9to1); configuration not given here) in this test?
active

So what was the verdict on COC(O)C(=O)c1c2c(cc3c1CCC3)CCCC2 (centres undefined) in this test?
inactive

----------
GI50 values, listed per item
Tested on: RXF 393
Test: NCI tumour cell line growth inhibition, 48 h
The source made the active and inactive calls. Rule as the data show it: active = GI50 up to about 1.1 µM and inactive = higher.

molecule: C[C@@H]1C[C@H](O)[C@]2(O)O[C@@H]3C[C@@]4(C=O)[C@@H](CC[C@@H]5[C@@H]4CC[C@]4(C)[C@@H](C6=CC(=O)OC6)CC[C@]54O)C[C@H]3O[C@@H]2O1
GI50: 0.0176 µM (active)
--
molecule: [N-]=[N+]=C1C(=O)C2CC3CC(C2)CC1C3
GI50: > 100 µM (inactive)
--
molecule: COCC1OC(OC2C3=C(C(C)C)CCC3(C)/C=C3\C(CCC3(O)COC)C(C)C2O)C(O)C2OC3OC12OC3(C)C1CO1 (stereo not drawn)
GI50: 21.2 µM (inactive)
--
molecule: CC(C)(C)c1ccc(C(C)(C)C)c(N2C(=O)[C@@H]3[C@@H]4C=C[C@@H](C4)[C@]3(C)C2=O)c1
GI50: 15.5 µM (inactive)
--
molecule: OCC(O)C(OC1OC(CO)C(O)C(O)C1O)c1nn(-c2ccc(Cl)cc2)c2nc3cc(Cl)ccc3nc12 (stereo not drawn)
GI50: > 100 µM (inactive)

State its GI50: CCCCCCCCCCCCCCCCOCC(Cl)CP(=O)(O)OP(=O)(O)OCC1OC(n2cnc3c(N)ncnc32)C(O)C1O (stereo not drawn)
61.8 µM (inactive)

State its GI50: CC(C)=CCC/C(C)=C/Cc1c2c(c3oc(-c4ccc(O)c(O)c4)c(O)c(=O)c3c1O)C=CC(C)(C)O2
7.71 µM (inactive)

State its GI50: CC1=CC2=C(C)C3(CC3)[C@@](C)(O)C(=O)C2=C1
0.149 µM (active)

----------
Tested on: SR
Assay: NCI tumour cell line growth inhibition, 48 h
Activity calls are given as the source filed them. No stated cut-off is given here; in the data, active = GI50 up to about 1.1 µM and inactive = higher.
// one of active, inactive, no free text

Worked cases, answers included:
compound: CC(C)(O)[C@H](CCO)O[Si](c1ccccc1)(c1ccccc1)C(C)(C)C
classLabel: inactive

compound: O=C(NO)C(=O)Nc1ccc(Cl)cc1[N+](=O)[O-]
classLabel: inactive

compound: O=c1c2ccccc2nc(-c2cc3c(cc2Cl)Sc2nccn2S3(=O)=O)n1-c1ccccc1
classLabel: inactive

compound: Cc1nc2ccccc2c(=O)n1/N=C/c1ccc(N(C)C)cc1
classLabel: inactive

compound: Nc1ccc2c(=O)cc(-c3cccs3)[nH]c2n1
classLabel: active

So what was the verdict on Cn1c(=O)n(C2(C)C[Se]C2)c2ccccc21 in this test?
inactive

So what was the verdict on O=CNCCCN1CCN(CCCNC=O)CC1 in this test?
inactive

So what was the verdict on NC1=Nc2cc(C(F)(F)F)ccc2Sc2nc3ccccc3n21 in this test?
inactive

So what was the verdict on O=C(Nc1ccc(Cl)cc1)c1cc(S(=O)(=O)Nc2n[nH]c(=O)[nH]2)c(SSc2cc(Cl)c(C(=O)Nc3ccc(Cl)cc3)cc2S(=O)(=O)Nc2n[nH]c(=O)[nH]2)cc1Cl in this test?
inactive

So what was the verdict on CC[P+](C)(Cc1ccccc1)c1ccccc1 (configuration not stated) in this test?
inactive

----------
GI50 values, listed per item
Test system: UACC-62
Experiment: NCI tumour cell line growth inhibition, 48 h
Active and inactive are the calls of the source. Rule as the data show it: active = GI50 up to about 1.1 µM and inactive = higher.

molecule: Clc1c(C(Cl)(Cl)Cl)nsc1N1CCCCC1
experimentalSystem: UACC-62
result: 22 µM (inactive)
//
molecule: COc1cc(/C=C2/SC(c3ccccc3)N(c3ccc(Cl)cc3)C2=O)cc(OC)c1OC (stereo unspecified)
experimentalSystem: UACC-62
result: 2.02 µM (inactive)
//
molecule: O=C1Cc2ccccc2N1/N=C\c1ccc([N+](=O)[O-])cc1
experimentalSystem: UACC-62
result: > 100 µM (inactive)
//
molecule: COc1cc(Nc2n[nH]c(NS(=O)(=O)c3cc(C)c(Cl)cc3S)n2)cc(OC)c1OC
experimentalSystem: UACC-62
result: > 100 µM (inactive)
//
molecule: CN(C)CCNCCN
experimentalSystem: UACC-62
result: > 100 µM (inactive)
//
molecule: c1cc2c(s1)-c1sccc1C21OCCO1
experimentalSystem: UACC-62
result: 19.5 µM (inactive)

Please respond with reported GI50 (system UACC-62) for CCCCCCCCCCCCCCCCOCC(Cl)CP(=O)(O)OP(=O)(O)OCC1OC(n2cnc3c(N)ncnc32)C(O)C1O (stereo unspecified) .
> 100 µM (inactive)

Please respond with reported GI50 (system UACC-62) for COc1ccc2nc3n(c2c1)CCc1cc(OC)c(OC)cc1-3 .
32.3 µM (inactive)

Please respond with reported GI50 (system UACC-62) for COC(=O)[C@@]1(Cc2ccc(O)cc2)C[C@@H]2Cc3ccccc3N2N1 .
70.8 µM (inactive)

Please respond with reported GI50 (system UACC-62) for CN1/C(=C\N=O)C(C)(C)N(O)C1(C)C .
> 100 µM (inactive)

Please respond with reported GI50 (system UACC-62) for Nc1ccc(C(=O)N/C(=C\c2ccc3c(c2)OCO3)c2nc3c(O)nc(S)nc3[nH]2)cc1 .
> 100 µM (inactive)

Please respond with reported GI50 (system UACC-62) for NNc1nnc(-c2ccccc2)nc1Cc1ccccc1 .
3.62 µM (inactive)

Please respond with reported GI50 (system UACC-62) for O=C(Cc1ccccc1)NS(=O)(=O)c1ccccc1 .
> 100 µM (inactive)

----------
Tested on: HL-60
Experiment: NCI tumour cell line growth inhibition, 48 h
Activity calls are given as the source filed them. Cut-off read from the data, not from the text of the source: active = GI50 up to about 1.1 µM and inactive = higher.
// one of y (active), n (inactive), no free text

compound: C[C@@H]1C2=CC[C@@]3(C)C(CCC3[C@H](C)[C@H]3C[C@@]4(C)O[C@@](c5cccnc5)(O3)OC4(C)C)[C@@H]2C2OC2[C@@]12CCC(=O)O2 (some centres not stated)
classLabel: n
//
compound: COc1ccc(C2COc3c(ccc(O)c3C)C2)cc1OC (configuration not stated)
classLabel: n
//
compound: NS(=O)(=O)c1ccc(-n2c(-c3cccs3)nc3ccc(I)cc3c2=O)cc1
classLabel: n
//
compound: O=S(=O)(Cc1nc2ccccc2s1)c1nc2ccccc2s1
classLabel: n
//
compound: C=C1C(=O)O[C@@H]2OC3(C)CCC4C(C)CCC1C42OO3 (some centres not stated)
classLabel: y
//
compound: COc1cc(/C=C(\C)c2ccc3c(c2)OCO3)cc(OC)c1OC
classLabel: n
//
compound: O=C1C(Cl)=C(Cl)C(=O)N1c1cccc(C(F)(F)F)c1
classLabel: n
//
compound: C=CCOc1ccc(C(=N/NC(=O)c2ccccc2)/N=N/c2ccc(C)cc2)cc1OC
classLabel: n

So what was the verdict on CCC(C)CC(C)CC(C)/C=C(\C)C1=C(C)CC(C)(O)O1 (configuration not stated) in this test?
n

So what was the verdict on CC(C)(C)N/N=C(/Cc1nc2c3c(ccc2nc1O)C(=O)c1ccccc1C3=O)C(=O)NC1=C(Cl)C(=O)c2ccccc2C1=O in this test?
n

Data provenance: ChEMBL document CHEMBL1201862
